Numbers sourced from ChEMBL document CHEMBL1151895.

- Assay procedure: Therapeutic index, CC50 for african green monkey Vero cells to MIC for Mycobacterium tuberculosis H37Rv
- Format: cell-based
Think of 3 as a floor: if selectivity ratio stands on it or above, it is yes (1); beneath it, no (0).

Does O[C@@H](COc1ccc(F)cc1)CN1CCC(O)(c2ccc(Cl)c(C(F)(F)F)c2)CC1 have a reported selectivity ratio of at least 3? no (0)

Follow-up item: Cc1cccc(C)c1OC[C@@H](O)CN1CCC(O)(c2ccc(Cl)c(C(F)(F)F)c2)CC1 yes (1)

What do you have for Cc1cccc(C)c1OC[C@H](O)CN1CCC(O)(c2ccc(Cl)c(C(F)(F)F)c2)CC1 ? yes (1)

How about O[C@H](CSc1ccccc1)CN1CCC(O)(c2ccc(Cl)c(C(F)(F)F)c2)CC1 ? yes (1)

Also need O[C@@H](COc1ccc(C(F)(F)F)cc1)CN1CCC(O)(c2ccc(Cl)c(C(F)(F)F)c2)CC1 , thanks. yes (1)

Thanks! And O[C@@H](COc1ccccc1)CN1CCC(O)(c2ccc(Cl)c(C(F)(F)F)c2)CC1 ? no (0)

Try this compound too: O[C@H](COc1ccc(Cl)c(Cl)c1)CN1CCC(O)(c2ccc(Cl)c(C(F)(F)F)c2)CC1 no (0)

What about this compound? O[C@@H](COc1ccc(Cl)cc1)CN1CCC(O)(c2ccc(Cl)c(C(F)(F)F)c2)CC1 yes (1)

Repeat for the following compound: OC(COc1ccc(Cl)cc1)CN1CCC(O)(c2ccc(Cl)c(C(F)(F)F)c2)CC1 (racemic) yes (1)
